Listed below: AUC(0-t) at 24 h values for each entry.
Experiment: AUC (0 to t) in rat at 5 mg/kg, ig administered as single dose measured upto 24 hrs by LC-MS/MS analysis
Type: ADME, organism-based
Parameters: route intragastric, dose 5 mg/kg, time <=24
Details: in vivo, po
Readout Type: AUC(0-t) at 24 h

Compound: CC1(C)CCC(CN2CCN(c3ccc(C(=O)NS(=O)(=O)c4ccc(NCC5CCOCC5)c([N+](=O)[O-])c4)c(Oc4cnc5[nH]ccc5c4)c3)CC2)=C(c2ccc(Cl)cc2)C1 [VENETOCLAX]
Readout Type: AUC(0-t) at 24 h
Obs Value: 1380 ng·h/mL

Compound: CC1(C)CCC(CN2CCN(c3ccc(C(=O)NS(=O)(=O)c4ccc(OCC5CCOCC5)c([N+](=O)[O-])c4)c(Oc4cnc5[nH]ccc5c4)c3)CC2)=C(c2ccc(C(F)(F)F)cc2)C1
Readout Type: AUC(0-t) at 24 h
Obs Value: 2620 ng·h/mL
